target: human glucagon receptor (human, UniProt P47871 26-477); assay: cell-based or functional assay
Sequence (P47871 26-477): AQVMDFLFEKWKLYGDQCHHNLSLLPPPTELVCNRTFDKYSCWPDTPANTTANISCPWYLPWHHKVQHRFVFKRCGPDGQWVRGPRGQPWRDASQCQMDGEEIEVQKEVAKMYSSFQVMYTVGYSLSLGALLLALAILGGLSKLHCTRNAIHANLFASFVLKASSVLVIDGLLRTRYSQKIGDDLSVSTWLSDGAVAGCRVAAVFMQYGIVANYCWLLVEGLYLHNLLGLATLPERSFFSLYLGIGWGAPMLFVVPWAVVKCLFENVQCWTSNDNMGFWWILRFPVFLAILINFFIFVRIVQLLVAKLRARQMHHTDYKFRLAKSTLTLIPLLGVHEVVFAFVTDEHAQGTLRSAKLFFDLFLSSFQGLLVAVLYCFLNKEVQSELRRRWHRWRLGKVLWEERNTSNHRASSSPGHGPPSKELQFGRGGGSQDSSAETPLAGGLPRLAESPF
Positions of bridges follow the written chain, without caps; N, C: chain ends. Non-standard residues stand in square brackets, D forms with d. No end group written: not given here. Aib = CC(C)(N)C(=O)O
quantity_measured: In vitro Activity (Relative Activity of SEQ ID NO: 1, %), from cAMP EC50

binder | comparative_sign | value_observed
Y[Aib]QGTFCSDYSKYLDSRRAQDFVQWLMNT [glucagon derivative of SEQ ID NO: 42] | = | 37.9
Y[Aib]QGTFTSDYSKYLDECRAKEFVQWLMNT (bridge 16-20; also: ring between positions 16 and 20, kind not given here) [glucagon derivative of SEQ ID NO: 20] | = | 300
HSQGTFTSDYSKYLDCDRAQDFVQWLMNT [glucagon derivative of SEQ ID NO: 2] | = | 0.6
Y[Aib]QGTFTSDYSKYCDEKRAKEFVQWLMNT (bridge 16-20; also: ring between positions 16 and 20, kind not given here) [glucagon derivative of SEQ ID NO: 23] | = | 76.8
YXQGTFTSDYSKYLDSRRAQDFVQWLMNTC (X at position 2 = aminoisobutyric acid (Aib)) [glucagon derivative of SEQ ID NO: 44] | = | 75.4
Y[Aib]QGTFTSDYSKYLDSCDAQDFVVWLINT [glucagon derivative of SEQ ID NO: 9] | < | 0.1
